Origin of values: patent US20250136578A1

# target.entity: AR / CBP ternary complex (Homo sapiens, UniProt P10275+Q92793)
# Sequence (P10275 whole entry): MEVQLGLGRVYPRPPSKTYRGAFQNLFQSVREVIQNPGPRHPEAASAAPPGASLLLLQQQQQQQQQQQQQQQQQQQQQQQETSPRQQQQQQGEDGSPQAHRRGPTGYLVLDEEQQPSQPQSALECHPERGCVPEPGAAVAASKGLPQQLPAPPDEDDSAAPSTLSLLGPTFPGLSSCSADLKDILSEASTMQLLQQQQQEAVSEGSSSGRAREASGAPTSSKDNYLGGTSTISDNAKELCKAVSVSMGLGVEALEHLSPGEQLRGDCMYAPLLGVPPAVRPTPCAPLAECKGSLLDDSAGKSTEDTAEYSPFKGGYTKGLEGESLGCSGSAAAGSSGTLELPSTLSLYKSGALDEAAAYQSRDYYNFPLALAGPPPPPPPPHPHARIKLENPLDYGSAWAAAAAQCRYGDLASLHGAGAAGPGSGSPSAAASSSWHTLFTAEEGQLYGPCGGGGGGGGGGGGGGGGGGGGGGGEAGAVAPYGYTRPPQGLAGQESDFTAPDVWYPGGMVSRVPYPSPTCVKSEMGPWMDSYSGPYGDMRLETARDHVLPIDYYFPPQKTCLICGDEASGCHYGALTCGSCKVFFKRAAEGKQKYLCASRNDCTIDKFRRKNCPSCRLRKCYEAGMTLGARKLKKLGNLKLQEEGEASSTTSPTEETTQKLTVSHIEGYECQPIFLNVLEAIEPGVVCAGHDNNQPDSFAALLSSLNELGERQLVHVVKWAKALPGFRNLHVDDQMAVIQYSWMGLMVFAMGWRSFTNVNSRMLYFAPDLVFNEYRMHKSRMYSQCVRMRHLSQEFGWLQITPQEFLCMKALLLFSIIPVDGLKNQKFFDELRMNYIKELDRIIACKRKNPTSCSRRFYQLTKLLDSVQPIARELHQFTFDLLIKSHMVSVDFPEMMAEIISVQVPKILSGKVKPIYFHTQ
# Sequence (Q92793 2-2442): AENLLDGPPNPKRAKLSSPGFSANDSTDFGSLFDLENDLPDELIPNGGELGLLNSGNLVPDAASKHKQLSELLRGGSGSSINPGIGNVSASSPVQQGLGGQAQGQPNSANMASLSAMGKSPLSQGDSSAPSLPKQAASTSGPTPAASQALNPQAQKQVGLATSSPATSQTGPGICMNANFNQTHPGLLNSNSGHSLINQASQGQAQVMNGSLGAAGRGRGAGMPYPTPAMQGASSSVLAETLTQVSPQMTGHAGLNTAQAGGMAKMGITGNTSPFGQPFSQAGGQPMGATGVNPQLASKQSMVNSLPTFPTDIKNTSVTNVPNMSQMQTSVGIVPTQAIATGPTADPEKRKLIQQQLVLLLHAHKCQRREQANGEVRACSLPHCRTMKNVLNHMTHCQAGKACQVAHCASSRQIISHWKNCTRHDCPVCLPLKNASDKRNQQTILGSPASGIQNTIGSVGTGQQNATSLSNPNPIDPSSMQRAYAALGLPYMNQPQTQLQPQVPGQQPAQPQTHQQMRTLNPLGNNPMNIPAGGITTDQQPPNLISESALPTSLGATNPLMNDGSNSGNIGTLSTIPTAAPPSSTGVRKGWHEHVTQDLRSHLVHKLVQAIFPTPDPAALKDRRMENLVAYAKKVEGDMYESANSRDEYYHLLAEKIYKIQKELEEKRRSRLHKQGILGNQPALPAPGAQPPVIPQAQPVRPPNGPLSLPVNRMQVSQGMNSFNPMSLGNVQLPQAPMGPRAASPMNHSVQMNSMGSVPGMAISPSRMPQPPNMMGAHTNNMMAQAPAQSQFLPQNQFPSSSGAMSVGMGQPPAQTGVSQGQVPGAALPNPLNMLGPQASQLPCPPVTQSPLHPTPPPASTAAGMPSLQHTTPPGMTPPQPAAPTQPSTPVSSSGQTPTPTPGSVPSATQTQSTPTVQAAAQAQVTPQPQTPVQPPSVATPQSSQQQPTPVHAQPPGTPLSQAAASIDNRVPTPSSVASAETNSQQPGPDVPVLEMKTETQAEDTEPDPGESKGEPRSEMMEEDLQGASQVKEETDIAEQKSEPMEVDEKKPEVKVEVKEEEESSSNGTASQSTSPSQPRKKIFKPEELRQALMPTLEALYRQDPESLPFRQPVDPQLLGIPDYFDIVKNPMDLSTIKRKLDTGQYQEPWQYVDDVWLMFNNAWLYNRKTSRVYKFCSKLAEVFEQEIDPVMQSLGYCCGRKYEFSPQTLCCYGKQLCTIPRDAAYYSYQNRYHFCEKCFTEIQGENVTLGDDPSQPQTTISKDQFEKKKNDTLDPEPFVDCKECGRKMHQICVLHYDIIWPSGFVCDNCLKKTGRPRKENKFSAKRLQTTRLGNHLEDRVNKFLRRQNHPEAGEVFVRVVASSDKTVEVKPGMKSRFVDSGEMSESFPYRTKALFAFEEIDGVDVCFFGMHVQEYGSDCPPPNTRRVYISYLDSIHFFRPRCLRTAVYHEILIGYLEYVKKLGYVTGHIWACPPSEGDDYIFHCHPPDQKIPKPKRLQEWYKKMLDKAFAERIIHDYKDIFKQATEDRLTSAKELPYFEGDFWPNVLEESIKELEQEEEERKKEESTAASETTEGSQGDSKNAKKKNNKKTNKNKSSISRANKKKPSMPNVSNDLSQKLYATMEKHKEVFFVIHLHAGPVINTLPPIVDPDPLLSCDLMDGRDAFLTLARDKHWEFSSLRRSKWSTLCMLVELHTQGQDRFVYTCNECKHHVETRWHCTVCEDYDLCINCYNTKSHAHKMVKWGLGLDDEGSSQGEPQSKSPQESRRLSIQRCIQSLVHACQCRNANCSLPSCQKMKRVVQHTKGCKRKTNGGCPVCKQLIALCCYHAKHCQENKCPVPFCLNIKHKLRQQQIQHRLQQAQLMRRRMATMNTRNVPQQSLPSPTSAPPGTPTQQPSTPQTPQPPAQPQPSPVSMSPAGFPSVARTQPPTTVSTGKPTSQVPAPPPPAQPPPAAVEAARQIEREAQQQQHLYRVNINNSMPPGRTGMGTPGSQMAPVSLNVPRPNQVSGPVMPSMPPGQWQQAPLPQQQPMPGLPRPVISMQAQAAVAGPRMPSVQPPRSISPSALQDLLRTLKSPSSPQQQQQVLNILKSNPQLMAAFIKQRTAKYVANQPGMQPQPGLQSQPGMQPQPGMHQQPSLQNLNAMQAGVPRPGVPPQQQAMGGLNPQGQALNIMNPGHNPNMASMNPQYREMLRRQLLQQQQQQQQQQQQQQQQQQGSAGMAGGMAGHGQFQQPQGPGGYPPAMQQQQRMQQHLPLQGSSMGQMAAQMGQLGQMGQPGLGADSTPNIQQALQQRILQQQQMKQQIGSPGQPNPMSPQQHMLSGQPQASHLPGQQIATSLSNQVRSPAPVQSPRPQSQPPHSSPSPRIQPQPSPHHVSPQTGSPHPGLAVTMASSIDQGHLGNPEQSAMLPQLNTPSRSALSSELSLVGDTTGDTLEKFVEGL
# method.notes: Ternary complex formation assay (sandwich ELISA, AR capture, CBP antibody detection) in VCaP cell lysates
# Assay type: cell-based
# condition.parameters: treated 1.5 hours, rabbit CBP or p300 antibody detection, average, read-out: Average Ternary Complex
# Protocol: […] Incubate for 1 hour at room temperature. […] Immediately read fluorescence on BMG ClarioStar (ex: 570/em 585), and repeat the read in 5 minutes and 15 minutes.
observable: EC50

Documented EC50 of CC(=O)N1CCc2c(c(N3CCCc4ccc(C(F)F)cc43)nn2C2CCN(C(=O)C3CCN(c4ccc(C(=O)N[C@H]5CC[C@H](Oc6ccc(C#N)c(Cl)c6)CC5)nn4)CC3)CC2)C1 [Compound 62] : < 1 nM

Documented EC50 of C[C@@H]1CC(=O)Nc2cccc(N3CCCc4cc(-c5cnn(CC6CCN(c7ccc(C(=O)N[C@H]8CC[C@H](Oc9ccc(C#N)c(Cl)c9)CC8)nn7)CC6)c5)c(C(F)F)cc43)c2N1 [Compound 34] : 1 to 10 nM

Documented EC50 of CC(=O)N1CCc2c(c(N3CCCc4cc(-c5cnn(C)c5)c(C)cc43)nn2C2CCN(C3CCC4(CC3)CN(c3ccc(C(=O)N[C@H]5CC[C@H](Oc6ccc(C#N)c(Cl)c6C)CC5)nn3)C4)CC2)C1 [Compound 300] : < 1 nM
